Just for reference, PubChem BioAssay AID330 is where these values come from.

# Tested on: P388 leukemia ip, CD2F1 mice, survival T/C
# assay-method-text: NCI In Vivo Anticancer Drug Screen. Data for tumor model P388 Leukemia (intraperitoneal) in CD2F1 (CDF1) mice
# setup-conditions: endpoint: median survival time; dose: 120.0 mg/kg/injection; schedule: Q01DX005 (ip); vehicle: saline with Tween-80; higher = longer survival
Toxic doses and inconclusive results are not listed.
Listed here are compounds together with their documented T/C.
readout-name: T/C

* COc1ccc(/C=N/N2CN(C(CC(N)=O)C(=O)O)P(Nc3ncccn3)N=C2N)cc1OC (stereo not given) | 102 % of control
* COc1cc(C(=O)CC(=O)CCC(=O)Nc2ccc(C)c(C)c2)ccc1O | 104 % of control
* Cc1cc(=O)[nH]c2cc3oc4ccccc4c3cc12 | 102 % of control
* Fc1ccc2nc3ccccc3c(SCCNCCSc3c4ccccc4nc4ccc(F)cc34)c2c1 | 89 % of control
* COC(=O)C(=O)C1CCc2c(C(=O)OC)nc3[nH]n(-c4ccccc4)c(=O)c3c21 (stereo not given) | 94 % of control

====

Below, each entry is listed with its recorded T/C.
# Test system: P388 leukemia ip, CD2F1 mice, survival T/C
# assay-method-text: NCI In Vivo Anticancer Drug Screen. Data for tumor model P388 Leukemia (intraperitoneal) in CD2F1 (CDF1) mice
# setup-conditions: endpoint: median survival time; dose: 50.0 mg/kg/injection; schedule: Q01DX005 (ip); vehicle: saline with Tween-80; higher = longer survival
Toxic doses and inconclusive results are not listed.
readout-name: T/C

- COc1ccc2c(c1)OCCN(C)OC2c1cccc(Cl)c1 (stereo unspecified): 107 % of control
- N#C/C(=C1/OC(=N)C(c2ccc(Cl)cc2)C1=O)c1ccc(Cl)cc1 (stereo unspecified): 110 % of control
- COc1cc2c(c3c1c(=O)c1ccccc1n3C)C=CC(C)(C)O2: 112 % of control
- [O-]c1ccc[n+]2c1sc1ncccc12 (tested in a mixture with another compound): 107 % of control
- CC(=O)O/N=C(C)/C(C)=N/Nc1ccccc1: 93 % of control
- O=C(NCc1ccccc1)C1C(=O)N(Cc2ccccc2)C(=O)/C1=N/O (stereo unspecified): 100 % of control
- CC(=O)N1C=Cc2ccccc2C1C1NC=Cc2ccccc21 (stereo unspecified): 96 % of control
- [N-]=[N+]=CC(=O)C1(c2ccccc2)OC1c1ccccc1 (stereo unspecified): 86 % of control
- CCC(C)C(F)C(=O)O (stereo unspecified): 98 % of control
- CC(=O)c1c(C(=O)O)n([O-])c2ccccc2[n+]1=O: 97 % of control
- CCOC(=O)C(SC#N)[Se]c1ccccc1 (stereo unspecified): 106 % of control

====

# Tested on: P388 leukemia ip, CD2F1 mice, survival T/C
# assay-method-text: NCI In Vivo Anticancer Drug Screen. Data for tumor model P388 Leukemia (intraperitoneal) in CD2F1 (CDF1) mice
# setup-conditions: endpoint: median survival time; dose: 50.0 mg/kg/injection; schedule: Q01DX005 (ip); vehicle: Klucel (hydroxypropylcellulose) (HPC); higher = longer survival
Toxic doses and inconclusive results are not listed. Square brackets hold non-standard residues; d marks the D form. Peptide text beside a SMILES is read from it. * marks the point of attachment. Nle = CCCC[CH](N)C(=O)O; Cbz = O=C(OCc1ccccc1)*
readout-name: T/C

- COc1ccc2c(C)cc(N/N=C\c3ccnc4ccccc34)nc2c1: 91 % of control
- CC(C)CC(NC(=O)c1cccnc1)C(=O)O (centres undefined): 104 % of control
- CCOC1=NC2(c3ccccc3)c3ccccc3SC12C (centres undefined): 98 % of control
- CN(NC(=O)C(=O)NCc1ccco1)C(=O)NC1CCCCC1: 103 % of control
- COc1ccc([B-]23OCC[N+]2(CNC(=O)C2=C(O)C4(O)C(=O)C5=C(O)c6c(O)cccc6C(C)(O)C5CC4C(N(C)C)C2=O)CCO3)cc1 (centres undefined): 105 % of control
- Cc1c(C)n(-c2ccccc2)c2nc(C)n(-c3ccccc3)c(=N)c12: 101 % of control
- CC1(C)OC(CP(=O)(c2ccccc2)c2ccccc2)C(CP(=O)(c2ccccc2)c2ccccc2)O1 (centres undefined): 97 % of control
- CC(=O)Nc1cc(Cl)cc2c1-c1ccc(Cl)cc1C2=O: 88 % of control
- CSCCC(NC(=O)C(C)NC(=O)OCc1ccccc1)C(=O)O (centres undefined): 99 % of control
- NC(N)=NN=C(C1CC1)C1CC1: 100 % of control
- Nc1nc(N)nc(N(CCO)CCO)n1: 111 % of control
- COC(=O)/C(C#N)=C/c1cccnc1: 101 % of control
- C=CC(c1ccccc1)c1cc2c(cc1OCCC)OCO2 (centres undefined): 98 % of control
- COc1cc(C(=O)NN=C(C)C)cc(OC)c1OC: 101 % of control
- CC(C)C(C(F)C(=O)OCc1ccccc1)N(Cc1ccccc1)Cc1ccccc1 (centres undefined): 98 % of control
- CCCCC(NC(=O)OCc1ccccc1)C(=O)NC(C(=O)O)C(C)C (centres undefined) (Cbz-[Nle]-Val-OH; configuration not given here): 99 % of control
- COc1ccc2cc1Oc1ccc(cc1)CC1c3cc(OC)c(cc3CCN1C)Oc1c(OC)c(OC)cc3c1C(C2)N(C)CC3 (centres undefined): 94 % of control
- COC(=O)C1C(NCc2ccccc2)=CC(C)(C)C(C(=O)OC)C1c1ccccc1 (centres undefined): 103 % of control
- Cc1c(N(C)c2ccccc2)c(=S)n(C)c(=S)n1C: 89 % of control
- O=C(O)CC(CC(=O)O)c1ccc2c(c1)OCO2: 99 % of control
- c1nc2c3c4c(sc3ncn2n1)CCCC4: 98 % of control
- CNC(=O)Nc1ccnc(=O)[nH]1: 116 % of control
- N=C(N)SCc1cccc(C(=O)O)c1: 110 % of control
- COc1cc(O)c2c(c1N)C(=O)c1ccccc1C2=O: 105 % of control
- CC1CCc2c(c3ccc(O)cc3oc2=O)C1 (centres undefined): 101 % of control
- OCc1c(-c2ccc(Cl)cc2)c(-c2ccc(Cl)cc2)c2n1CCC2: 92 % of control
- Nc1nc2c(c(=O)[nH]1)CN(CCCN1CCN(CCCN3CNc4nc(N)[nH]c(=O)c4C3)CC1)CN2: 94 % of control
- Nc1ccc2nc3ccc(O)cc3nc2c1: 103 % of control
- CC1=CC(=O)c2c(O)c3c(c(O)c2C1=O)C1C(O)C(C3=O)C23C(=O)c4c(O)c(C)cc(O)c4C(O)=C2C(=O)CC(O)C13 (centres undefined): 105 % of control
- Cc1cc(-c2ccc(Oc3ccc(Br)cc3)cc2)n[nH]c1=O: 99 % of control
- O=C(NC(Cc1ccc(Cl)cc1)C(=O)O)c1ccc(I)cc1 (centres undefined): 101 % of control
- COC(=O)n1oc2ccc(Br)cc2c1=O: 98 % of control
- O=S(=O)(O)c1ccccc1P(c1ccccc1)c1ccccc1: 98 % of control
- CCCCC(C)(C(=O)OCC)C(=O)OCC: 105 % of control
